System: Staphylococcus aureus
Assay: Antimicrobial activity against Staphylococcus aureus ATCC 29213
Type: functional, organism-based
MEASUREMENT KIND: IC50

Look up and report measured IC50 for this entry: Cc1ccc(O)c(O)c1
148 µM

###

System: Staphylococcus aureus
Experiment: Antimicrobial activity against methicillin-resistant Staphylococcus aureus ATCC 33591
Type: functional, organism-based
MEASUREMENT KIND: pIC50
One number for each entry, as −log10 of the molar value.

Look up and report measured pIC50 for this entry: Cc1ccc(O)c(O)c1
4.14
